target: human FPR1 (Homo sapiens (Human)); test: FPR1 cyclic adenosine monophosphate (cAMP) assay; format: cell-based; settings: CHO cells overexpressing human FPR1; forskolin 10 µM; inhibition of cAMP production; read-out: hFPR1 cAMP EC50
Sequence (P21462 whole entry): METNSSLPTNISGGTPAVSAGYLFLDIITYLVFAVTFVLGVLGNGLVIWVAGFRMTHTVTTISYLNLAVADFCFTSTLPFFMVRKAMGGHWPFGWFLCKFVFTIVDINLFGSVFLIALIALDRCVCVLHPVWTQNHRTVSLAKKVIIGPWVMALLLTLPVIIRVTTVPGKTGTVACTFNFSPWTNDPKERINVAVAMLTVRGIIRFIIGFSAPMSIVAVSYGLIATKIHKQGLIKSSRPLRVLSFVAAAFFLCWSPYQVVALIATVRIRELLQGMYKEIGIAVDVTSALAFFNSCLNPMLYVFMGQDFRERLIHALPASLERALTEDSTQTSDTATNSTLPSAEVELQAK
MEASUREMENT LABEL: pEC50
Just so you know, pEC50 here is -log10 of the concentration in molar units; reply with that number alone.

Answered examples (5):
1. COc1cc(F)c([C@@H]2CN(c3c(C)ccn(CC(F)F)c3=O)C(=O)[C@H]2NC(=O)c2ccc(Cl)cc2)c(F)c1 [Example 421] : 7.82
2. COc1cc(F)c([C@H]2[C@H](NC(=O)c3ccc(OC(F)F)cc3)C(=O)N(c3cccc(N4C[C@@H]5C[C@H]4CN5C)n3)[C@H]2C)c(F)c1 [Example 526] : 5.64
3. COc1cc(F)c([C@@H]2CN(c3nccc(N4C[C@@H]5C[C@H]4CN5C)c3C(F)(F)F)C(=O)[C@H]2NC(=O)c2ccc(Cl)cc2)c(F)c1 [Example 334] : 6.32
4. CCn1cccc(N2C[C@@H](c3ccc(OC)cc3F)[C@H](NC(=O)c3ccc(OC(F)F)cc3)C2=O)c1=O [Example 226] : 7.64
5. COc1cc(F)c([C@@H]2CN(c3ccc4n(c3=O)CCOC4=O)C(=O)[C@H]2NC(=O)c2ccc(OC(F)F)cc2)c(F)c1 [Example 668] : 6.68

Next molecule, please.
input: Entry COc1cc(F)c([C@@H]2CN(c3cccn(CC(C)(CO)CO)c3=O)C(=O)[C@H]2NC(=O)c2ccc(OC(F)F)cc2)c(F)c1 [Example 179] has what pEC50?
output: 7.04
